Numbers sourced from the supplement of paper PMC10307832.

Please respond with reported relative viability for every item in the list.
- System: NCI-H322M
- protocol_summary: relative viability (nuclei count vs DMSO), 5 days (fraction); higher = more cells survive
- particulars: first compound 0.001 µM
Number only, please.

Would you kindly share the measured relative viability for Cc1cn(-c2cc(NC(=O)c3ccc(C)c(Nc4nccc(-c5cccnc5)n4)c3)cc(C(F)(F)F)c2)cn1 [Nilotinib] + CS(=O)(=O)CCNCc1ccc(-c2ccc3ncnc(Nc4ccc(OCc5cccc(F)c5)c(Cl)c4)c3c2)o1 [Lapatinib] (partner 2 µM) ? 0.557

Quick one: Cc1cn(-c2cc(NC(=O)c3ccc(C)c(Nc4nccc(-c5cccnc5)n4)c3)cc(C(F)(F)F)c2)cn1 [Nilotinib] + Nc1nc2[nH]cc(CCc3ccc(C(=O)N[C@@H](CCC(=O)O)C(=O)O)cc3)c2c(=O)[nH]1 [Pemetrexed] (partner 0.2 µM) 0.757

Cc1cn(-c2cc(NC(=O)c3ccc(C)c(Nc4nccc(-c5cccnc5)n4)c3)cc(C(F)(F)F)c2)cn1 [Nilotinib] + Nc1ncn([C@H]2C[C@H](O)[C@@H](CO)O2)c(=O)n1 [Decitabine] (partner 2 µM) ? 0.724

Can you check Cc1cn(-c2cc(NC(=O)c3ccc(C)c(Nc4nccc(-c5cccnc5)n4)c3)cc(C(F)(F)F)c2)cn1 [Nilotinib] + N=C(N)NC(=N)NCCc1ccccc1 [Phenformin] (partner 250 µM) next? 0.781

And what about the compound Cc1cn(-c2cc(NC(=O)c3ccc(C)c(Nc4nccc(-c5cccnc5)n4)c3)cc(C(F)(F)F)c2)cn1 [Nilotinib] + CCNC(=O)c1noc(-c2cc(C(C)C)c(O)cc2O)c1-c1ccc(CN2CCOCC2)cc1 [Luminespib] (partner 0.01 µM) ? 1.08

For Cc1cn(-c2cc(NC(=O)c3ccc(C)c(Nc4nccc(-c5cccnc5)n4)c3)cc(C(F)(F)F)c2)cn1 [Nilotinib] + C[C@@H](Oc1cc(-c2cnn(C3CCNCC3)c2)cnc1N)c1c(Cl)ccc(F)c1Cl [Crizotinib] (partner 1 µM) then? 1.06

Check Cc1cn(-c2cc(NC(=O)c3ccc(C)c(Nc4nccc(-c5cccnc5)n4)c3)cc(C(F)(F)F)c2)cn1 [Nilotinib] + C[C@]1(O)C[C@@H](c2nc(-c3ccc4ccc(-c5ccccc5)nc4c3)c3c(N)nccn32)C1 [Linsitinib] (partner 1 µM) too. 0.747

* * *

- Test system: HOP-62
- protocol_summary: relative viability (nuclei count vs DMSO), 5 days (fraction); higher = more cells survive
- particulars: first compound 0.6325 µM
So I've got a bunch of compounds here, and I need their relative viability values.
Give the value as a plain number.

What measured relative viability is associated with CN1CCN(CCOc2cc(OC3CCOCC3)c3c(Nc4c(Cl)ccc5c4OCO5)ncnc3c2)CC1 [Saracatinib] + CC(=O)Nc1cccc(-n2c(=O)n(C3CC3)c(=O)c3c(Nc4ccc(I)cc4F)n(C)c(=O)c(C)c32)c1 [Trametinib] (partner 0.02 µM) on HOP-62? 0.441

Next: CN1CCN(CCOc2cc(OC3CCOCC3)c3c(Nc4c(Cl)ccc5c4OCO5)ncnc3c2)CC1 [Saracatinib] + O=C(c1cc(Cc2n[nH]c(=O)c3ccccc23)ccc1F)N1CCN(C(=O)C2CC2)CC1 [Olaparib] (partner 8 µM) 0.204

Next: CN1CCN(CCOc2cc(OC3CCOCC3)c3c(Nc4c(Cl)ccc5c4OCO5)ncnc3c2)CC1 [Saracatinib] + COc1cccc2cc(-c3nc([C@H]4CC[C@H](C(=O)O)CC4)n4ncnc(N)c34)[nH]c12 [OSI-027] (partner 0.5 µM) 0.794

* * *

- Test system: LCLC-97TM1
- protocol_summary: relative viability (nuclei count vs DMSO), 5 days (fraction); higher = more cells survive
- particulars: first compound 8 µM
property_name: relative viability
Note: the reply should be a number with no unit written.

Quick check: relative viability of Nc1cccc2c1CN(C1CCC(=O)NC1=O)C2=O (stereo not drawn) [Lenalidomide] + Cc1cc(Nc2cc(N3CCN(C)CC3)nc(Sc3ccc(NC(=O)C4CC4)cc3)n2)n[nH]1 [Tozasertib] (partner 0.1 µM) ? 0.232

Quick one: Nc1cccc2c1CN(C1CCC(=O)NC1=O)C2=O (stereo not drawn) [Lenalidomide] + Nc1ncn([C@H]2C[C@H](O)[C@@H](CO)O2)c(=O)n1 [Decitabine] (partner 2 µM) 0.221

Now the same for Nc1cccc2c1CN(C1CCC(=O)NC1=O)C2=O (stereo not drawn) [Lenalidomide] + COc1cc2c(Oc3ccc(NC(=O)C4(C(=O)Nc5ccc(F)cc5)CC4)cc3F)ccnc2cc1OCCCN1CCOCC1 [Foretinib] (partner 0.25 µM) 0.947

* * *

- Tested on: NCI-H322M
- protocol_summary: relative viability (nuclei count vs DMSO), 5 days (fraction); higher = more cells survive
- particulars: first compound 2.53 µM
property_name: relative viability
Returns: the value as a bare number; no unit string appended.

What value of measured relative viability is listed for Nc1cccc2c1CN(C1CCC(=O)NC1=O)C2=O (centres undefined) [Lenalidomide] + COc1cc2c(Oc3ccc(NC(=O)C4(C(=O)Nc5ccc(F)cc5)CC4)cc3F)ccnc2cc1OCCCN1CCOCC1 [Foretinib] (partner 0.25 µM) ? 1.11

Request: Nc1cccc2c1CN(C1CCC(=O)NC1=O)C2=O (centres undefined) [Lenalidomide] + O=C(CCCCCCC(=O)Nc1ccccc1)NO [Vorinostat] (partner 1 µM) 0.962

How about this molecule: Nc1cccc2c1CN(C1CCC(=O)NC1=O)C2=O (centres undefined) [Lenalidomide] + COc1cccc2cc(-c3nc([C@H]4CC[C@H](C(=O)O)CC4)n4ncnc(N)c34)[nH]c12 [OSI-027] (partner 0.5 µM) 0.609

Same for Nc1cccc2c1CN(C1CCC(=O)NC1=O)C2=O (centres undefined) [Lenalidomide] + N=C(N)NC(=N)NCCc1ccccc1 [Phenformin] (partner 250 µM) 0.863

Another molecule: Nc1cccc2c1CN(C1CCC(=O)NC1=O)C2=O (centres undefined) [Lenalidomide] + CS(=O)(=O)N1CCN(Cc2cc3nc(-c4cccc5[nH]ncc45)nc(N4CCOCC4)c3s2)CC1 [Pictilisib] (partner 1 µM) 0.546

Quick one: Nc1cccc2c1CN(C1CCC(=O)NC1=O)C2=O (centres undefined) [Lenalidomide] + C[C@@H](Oc1cc(-c2cnn(C3CCNCC3)c2)cnc1N)c1c(Cl)ccc(F)c1Cl [Crizotinib] (partner 1 µM) 0.914

// repeat for Nc1cccc2c1CN(C1CCC(=O)NC1=O)C2=O (centres undefined) [Lenalidomide] + CC(=O)Nc1cccc(-n2c(=O)n(C3CC3)c(=O)c3c(Nc4ccc(I)cc4F)n(C)c(=O)c(C)c32)c1 [Trametinib] (partner 0.02 µM) and report 0.508

Same read-out for Nc1cccc2c1CN(C1CCC(=O)NC1=O)C2=O (centres undefined) [Lenalidomide] + Cc1nc(NC(=O)N2CCC[C@H]2C(N)=O)sc1-c1ccnc(C(C)(C)C(F)(F)F)c1 [Alpelisib] (partner 2 µM) ? 0.837

Okay, and Nc1cccc2c1CN(C1CCC(=O)NC1=O)C2=O (centres undefined) [Lenalidomide] + CC(=O)c1c(C)c2cnc(Nc3ccc(N4CCNCC4)cn3)nc2n(C2CCCC2)c1=O [Palbociclib] (partner 0.5 µM) ? 0.473

* * *

- Tested on: LXF-289
- protocol_summary: relative viability (nuclei count vs DMSO), 5 days (fraction); higher = more cells survive
- particulars: first compound 2 µM
Please respond with reported relative viability for every item in the list.
Give the figure by itself; no unit, no explanation.

Can you share its relative viability? I mean this molecule: CN1CCN(CCOc2cc(OC3CCOCC3)c3c(Nc4c(Cl)ccc5c4OCO5)ncnc3c2)CC1 [Saracatinib] + O=C(c1cc(Cc2n[nH]c(=O)c3ccccc23)ccc1F)N1CCN(C(=O)C2CC2)CC1 [Olaparib] (partner 8 µM) 1.04

Further, for CN1CCN(CCOc2cc(OC3CCOCC3)c3c(Nc4c(Cl)ccc5c4OCO5)ncnc3c2)CC1 [Saracatinib] + CC1(C)CCC(c2ccc(Cl)cc2)=C(CN2CCN(c3ccc(C(=O)NS(=O)(=O)c4ccc(N[C@H](CCN5CCOCC5)CSc5ccccc5)c(S(=O)(=O)C(F)(F)F)c4)cc3)CC2)C1 [Navitoclax] (partner 0.5 µM) ? 0.964

Same for CN1CCN(CCOc2cc(OC3CCOCC3)c3c(Nc4c(Cl)ccc5c4OCO5)ncnc3c2)CC1 [Saracatinib] + COc1cccc2cc(-c3nc([C@H]4CC[C@H](C(=O)O)CC4)n4ncnc(N)c34)[nH]c12 [OSI-027] (partner 0.5 µM) 0.677

Now try CN1CCN(CCOc2cc(OC3CCOCC3)c3c(Nc4c(Cl)ccc5c4OCO5)ncnc3c2)CC1 [Saracatinib] + Cc1nc(Nc2ncc(C(=O)Nc3c(C)cccc3Cl)s2)cc(N2CCN(CCO)CC2)n1 [Dasatinib] (partner 0.075 µM) . 0.212

Can you handle Cc1csc(=NC2CCCCC2)n1/N=C/c1ccc(O)c(O)c1O [MIM1] + Cc1cc(Nc2cc(N3CCN(C)CC3)nc(Sc3ccc(NC(=O)C4CC4)cc3)n2)n[nH]1 [Tozasertib] (partner 0.1 µM) next? 0.198

And for Cc1csc(=NC2CCCCC2)n1/N=C/c1ccc(O)c(O)c1O [MIM1] + CCNC(=O)c1noc(-c2cc(C(C)C)c(O)cc2O)c1-c1ccc(CN2CCOCC2)cc1 [Luminespib] (partner 0.01 µM) ? 0.659

Please give the result for Cc1csc(=NC2CCCCC2)n1/N=C/c1ccc(O)c(O)c1O [MIM1] + N=C(N)NC(=N)NCCc1ccccc1 [Phenformin] (partner 250 µM) too. 0.532

Can you check Cc1csc(=NC2CCCCC2)n1/N=C/c1ccc(O)c(O)c1O [MIM1] + CS(=O)(=O)CCNCc1ccc(-c2ccc3ncnc(Nc4ccc(OCc5cccc(F)c5)c(Cl)c4)c3c2)o1 [Lapatinib] (partner 2 µM) next? 0.895

Consider next the molecule Cc1csc(=NC2CCCCC2)n1/N=C/c1ccc(O)c(O)c1O [MIM1] + C[C@@H](Oc1cc(-c2cnn(C3CCNCC3)c2)cnc1N)c1c(Cl)ccc(F)c1Cl [Crizotinib] (partner 1 µM) in the same way. 0.833

Record: CN1CCN(CCOc2cc(OC3CCOCC3)c3c(Nc4c(Cl)ccc5c4OCO5)ncnc3c2)CC1 [Saracatinib] + O=C(CCCCCCC(=O)Nc1ccccc1)NO [Vorinostat] (partner 1 µM) 0.715

Follow-up entry: CN1CCN(CCOc2cc(OC3CCOCC3)c3c(Nc4c(Cl)ccc5c4OCO5)ncnc3c2)CC1 [Saracatinib] + CC(=O)Nc1cccc(-n2c(=O)n(C3CC3)c(=O)c3c(Nc4ccc(I)cc4F)n(C)c(=O)c(C)c32)c1 [Trametinib] (partner 0.02 µM) 0.685

What would you report for Cc1csc(=NC2CCCCC2)n1/N=C/c1ccc(O)c(O)c1O [MIM1] + Cc1nc(NC(=O)N2CCC[C@H]2C(N)=O)sc1-c1ccnc(C(C)(C)C(F)(F)F)c1 [Alpelisib] (partner 2 µM) ? 1.02

What do you have for CN1CCN(CCOc2cc(OC3CCOCC3)c3c(Nc4c(Cl)ccc5c4OCO5)ncnc3c2)CC1 [Saracatinib] + CC(=O)c1c(C)c2cnc(Nc3ccc(N4CCNCC4)cn3)nc2n(C2CCCC2)c1=O [Palbociclib] (partner 0.5 µM) ? 0.571

Field entry: CN1CCN(CCOc2cc(OC3CCOCC3)c3c(Nc4c(Cl)ccc5c4OCO5)ncnc3c2)CC1 [Saracatinib] + CC(C)C[C@H](NC(=O)[C@H](Cc1ccccc1)NC(=O)c1cnccn1)B(O)O [Bortezomib] (partner 0.002 µM) 0.987

Quick one: CN1CCN(CCOc2cc(OC3CCOCC3)c3c(Nc4c(Cl)ccc5c4OCO5)ncnc3c2)CC1 [Saracatinib] + CS(=O)(=O)N1CCN(Cc2cc3nc(-c4cccc5[nH]ncc45)nc(N4CCOCC4)c3s2)CC1 [Pictilisib] (partner 1 µM) 0.472
